- Tested on: Klebsiella pneumoniae
- measurement_notes: In vitro minimum inhibitory concentration to inhibit Klebsiella pneumoniae ATCC 10031
- Type: functional
metric: MIC (µg/mL)

• C[C@H]1N(c2c(F)cc3c(=O)c(C(=O)O)cn(C4CC4)c3c2F)C[C@]1(C)N = 0.03
• CCn1cc(C(=O)O)c(=O)c2cc(F)c(N3C[C@@H](N)[C@@H]3C)nc21 = 0.12
• C[C@H]1[C@H](N)CN1c1nc2c(cc1F)c(=O)c(C(=O)O)cn2C1CC1 = 0.03
• C[C@H]1[C@H](N)CN1c1c(F)cc2c(=O)c(C(=O)O)cn(C3CC3)c2c1F = 0.03
• C[C@H]1N(c2cc3c(cc2F)c(=O)c(C(=O)O)cn3C2CC2)C[C@]1(C)N = 0.03

a = C[C@H]1[C@H](N)CN1c1nc2c(cc1F)c(=O)c(C(=O)O)cn2CCF
b = C[C@H]1[C@H](N)CN1c1c(F)cc2c(=O)c(C(=O)O)cn3c2c1SCC3
Short answer wanted: higher MIC, a or b ? Select an item and report its label. b
(b: 0.25 µg/mL, a: 0.06 µg/mL)

a = CC1(C)[C@@H](N)CN1c1nc2c(cc1F)c(=O)c(C(=O)O)cn2C1CC1
b = C[C@@H]1[C@@H](CN)CN1c1c(F)cc2c(=O)c(C(=O)O)cn(C3CC3)c2c1F
c = C[C@H]1[C@H](N)CN1c1cc2c(cc1F)c(=O)c(C(=O)O)cn2C(C)(C)C
Kindly order the items shown according to MIC, from the highest value down. In your reply, arrange the labels in the requested order. b, a, c

a = C[C@H]1[C@H](N)CN1c1c(F)cc2c(=O)c(C(=O)O)cn(C(C)(C)C)c2c1F
b = C[C@H]1[C@H](N)CN1c1c(F)cc2c(=O)c(C(=O)O)cn(-c3ccc(F)cc3)c2c1F
c = C[C@H]1[C@H](N)CN1c1c(F)cc2c(=O)c(C(=O)O)cn(CCF)c2c1Cl
d = C[C@H]1[C@H](N)CN1c1cc2c(cc1F)c(=O)c(C(=O)O)cn2-c1ccc(F)cc1
Hey, quick one: sort these by MIC, largest value first please. // respond by listing labels in the order requested b, a, c, d
(b: 0.12 µg/mL, a: 0.06 µg/mL, c: 0.03 µg/mL, d: 0.015 µg/mL)

P = CCNC[C@H]1CN(c2c(F)cc3c(=O)c(C(=O)O)cn(C4CC4)c3c2F)[C@@H]1C
Q = CC[C@H]1[C@@H](O)CN1c1cc2c(cc1F)c(=O)c(C(=O)O)cn2C1CC1
Larger number for MIC: P , or Q ? Respond using the label that marks the chosen record. Q
(Q: 0.5 µg/mL, P: 0.06 µg/mL)

Taken from ChEMBL document CHEMBL1127424.
